# Tested on: SK-MES-1
# Experiment summary: Cell viability assay (CCK-8)
# Assay type: cell-based
# Recorded conditions: free payloads; CCK-8, 96 hours; cell 'SK-M55-1' [sic], Lung; read-out: IC50 (95% Cl)
Where a SMILES comes first, the peptide text is derived from it. [ ]: non-standard residue; d: D form. The star is where a group is joined. Dolaproine = CO[C@@H]([C@@H]1CCCN1)[C@@H](C)C(=O)O; Dil = CC[C@H](C)[C@H](NC)[C@@H](CC(=O)O)OC; X1 = C[C@@H](N*)[C@@H](O)c1ccccc1; NMeV = CN[C@H](C(=O)O)C(C)C
Each item that follows carries a reported pIC50.
Keep in mind that pIC50 stands for -log10 of concentration in molar terms.

| Molecule | pIC50 |
| --- | --- |
| CCc1c2c(nc3ccc(O)cc13)-c1cc3c(c(=O)n1C2)COC(=O)[C@]3(O)CC [SN38] | 8.26 |

Lab note: next molecule to report on.
Hello, please tell me recorded pIC50 for this one: CC[C@H](C)[C@@H]([C@@H](CC(=O)N1CCC[C@H]1[C@H](OC)[C@@H](C)C(=O)N[C@H](C)[C@@H](O)c1ccccc1)OC)N(C)C(=O)[C@@H](NC(=O)[C@@H](NC)C(C)C)C(C)C [MMAE] (H-[NMeV]V[Dil][Dolaproine]-X1)
9.65
